- System: K98450-129-R-PDC complex spheroid growth, percent test/control;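 note: luminescence used as a proxy for viable cell amount; spheroids exposed to agents for seven days before the viability readout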
- experimental details: Anticancer human tumor K98450-129-R-PDC patient-derived colon adenocarcinoma cell line growth inhibition [RAS]
- experimental context: compound 10 µM; active compounds read low
measured property: viability, T/C

• CC(Nc1ccc2c(c1)OCCn1cc(N3C(=O)OCC3C(F)F)nc1-2)C(N)=O (centres undefined) = 73.7% [middle of 4 runs]
• C#Cc1c(F)ccc2cc(O)cc(-c3ncc4c(N5CC6CCC(C5)N6)nc(OCC56CCCN5CC(F)C6)nc4c3F)c12 (centres undefined) = 95.1% [middle of 8 runs]
• CC1(O)CCCC1n1c(=O)c(C(F)F)cc2cnc(NC3CCN(S(C)(=O)=O)CC3)nc21 (centres undefined) = 73.3% [middle of 4 runs]
• Cc1nc(N2CCC3(CC2)COC(C)C3N)c(CO)nc1Sc1ccnc(N)c1Cl (centres undefined) = 28.8% [middle of 4 runs]
• NC1c2ccccc2OC12CCN(c1cnc3c(N4CCCc5ncccc54)n[nH]c3n1)CC2 (centres undefined) = 25% [middle of 4 runs]
• CC(C)NCC(C(=O)N1CCN(c2ncnc3c2C(C)CC3O)CC1)c1ccc(Cl)cc1 (centres undefined) = 101% [middle of 4 runs]
• CC(=O)OC12COC1CC(O)C1(C)C(=O)C(O)C3=C(C)C(OC(=O)C(O)C(NC(=O)OC(C)(C)C)c4ccccc4)CC(O)(C(OC(=O)c4ccccc4)C21)C3(C)C (centres undefined) = 43.9% [middle of 4 runs]
• C[C@@H](NC(=O)c1ncnc(N)c1Cl)c1ncc(C(=O)Nc2cc(C(F)(F)F)c(Cl)cn2)s1 = 106% [middle of 4 runs]
• CCC(CC)c1cc(NC2CCC(N)C2)n2nccc2n1 (centres undefined) = 17.7% [middle of 4 runs]
